B1: Twister Ribozyme (parent)
chain: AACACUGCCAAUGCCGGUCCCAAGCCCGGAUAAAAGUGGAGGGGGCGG

Variants of: B1
Experiment: self-cleavage, relative activity (ratio to wild type); higher = more cleavage; co-transcriptional
Classify by measured self-cleavage: yes (1) if it is equal to or exceeds 0.4, no (0) if it is smaller.

A22U C27G ... no (0)
U37G G43C ... no (0)
A11G A23U ... yes (1)
A4U A11G ... no (0)
C19A ... no (0)

Inquiry: Given the entry C5A A33G , answer whether its self-cleavage meets or surpasses 0.4.
Reply text: yes (1)

Inquiry: Given the entry U12A G48U , answer whether its self-cleavage meets or surpasses 0.4.
Reply text: yes (1)

Inquiry: Given the entry A30G A35U , answer whether its self-cleavage meets or surpasses 0.4.
Reply text: yes (1)
